# TARGET ENTITY: T1, human recombinant soluble CD73 protein (human, UniProt P21589 27-547)
# T1 construct: also called huCD73; rhCD73
# T1 sequence: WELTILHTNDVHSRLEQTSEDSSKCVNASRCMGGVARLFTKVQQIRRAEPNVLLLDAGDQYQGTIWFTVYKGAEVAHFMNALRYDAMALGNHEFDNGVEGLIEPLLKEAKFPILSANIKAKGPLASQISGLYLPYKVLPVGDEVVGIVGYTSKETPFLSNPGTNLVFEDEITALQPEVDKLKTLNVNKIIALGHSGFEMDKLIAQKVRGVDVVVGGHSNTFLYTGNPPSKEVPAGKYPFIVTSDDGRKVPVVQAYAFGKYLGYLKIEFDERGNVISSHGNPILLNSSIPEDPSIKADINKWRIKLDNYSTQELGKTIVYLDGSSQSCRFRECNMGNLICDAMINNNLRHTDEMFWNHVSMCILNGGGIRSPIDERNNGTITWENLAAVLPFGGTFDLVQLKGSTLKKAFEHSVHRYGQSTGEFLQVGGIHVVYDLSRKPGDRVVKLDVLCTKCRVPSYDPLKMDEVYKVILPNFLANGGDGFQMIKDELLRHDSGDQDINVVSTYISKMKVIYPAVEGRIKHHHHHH
# ASSAY TEXT: SPR, Ab captured on Protein A, soluble huCD73 as analyte
Exercise: for every item that follows, state its recorded kon.
Numbers only, in M⁻¹ s⁻¹.

Consider the worked cases shown below.
H4L1 (antibody, human IgG1, V domains shown) VH: QIQLVQSGAEVKKPGASVKVSCKASGYAFASYNMYWVRQAPGQSLEWIGYIDPYNGGSSYNLTFKGKATLTVDKSASTAYMELSSLRSEDTAVYYCARGYGNYKAWFAYWGQGTLVTVSS VL: DIQMTQSPSSLSASVGDRVTITCKASQSVSNDVAWYQQKPGKAPKLLIYYASTRYTGVPSRFSGSGYGTDFTFTISSLQPEDIATYYCQQDYSSLTFGQGTKLEIK ... 106000
H3L4 (antibody, human IgG1, V domains shown) VH: QIQLVQSGAEVKKPGASVKVSCKASGYAFTSYNMYWVRQAPGQSLEWIGYIDPYNGGSSYNLTFKGKATITVDKSASTAYMELSSLRSEDTAVYYCARGYGNYKAWFAYWGQGTLVTVSS VL: DVQMTQSPSSLSASVGDRVTITCKASQSVSNDVAWYQQKPGKAPKLLIYYASTRYTGVPDRFSGSGYGTDFTFTISSLQPEDIATYFCQQDYSSLTFGQGTKLEIK ... 90400

Then there is this binder:
Task item: I would be grateful if you could share the reported kon for H4L2 (antibody, human IgG1, V domains shown) VH: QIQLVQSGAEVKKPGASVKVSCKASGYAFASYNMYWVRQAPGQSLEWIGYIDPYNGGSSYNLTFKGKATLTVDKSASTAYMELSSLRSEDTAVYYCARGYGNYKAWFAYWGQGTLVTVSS VL: DIQMTQSPSSLSASVGDRVTITCKASQSVSNDVAWYQQKPGKAPKLLIYYASTRYTGVPDRFSGSGYGTDFTFTISSLQPEDIATYYCQQDYSSLTFGQGTKLEIK .
Reply: 77500
